Here we gather IC50 data for Heat shock protein HSP 90-alpha (Homo sapiens, UniProt P07900) reported by several publications.

Below: 6 molecules and their reported IC50.
>>> df
                               smiles_input  reported_metric      assay_result
0  COc1cccc(C(=O)N[C@H]2C[C@H]3CC[C@@H](C2)N3c2ccc(C(=O)NCc3ccc4c(c3)OCO4)cn2)c1C             IC50          < 500 nM
1  COc1cccc(C(=O)N[C@H]2C[C@H]3CC[C@@H](C2)N3c2ccc(C(=O)NCc3ccccc3)cn2)c1CCCO             IC50          < 500 nM
2  COc1cccc(C(=O)N[C@H]2C[C@H]3CC[C@@H](C2)N3c2ccc(C(=O)NCc3ccccc3)cn2)c1I             IC50  2000 to 10000 nM
3  CC(C)(C)CNCCCn1c(Sc2cc3c(cc2Br)OCO3)nc2c(N)nccc21             IC50    100 to 1000 nM
4  CCCCn1nnnc1-c1cc(-c2cccc(C(=O)NCCN(C)C)c2)c(O)cc1O             IC50        > 50000 nM
5  COCCCn1nnnc1-c1cc(-c2ccc(C(F)(F)F)cc2)c(O)cc1O             IC50        > 50000 nM

Value (IC50, Heat shock protein HSP 90-alpha (Homo sapiens, UniProt P07900)) for record COc1cccc(C(=O)N[C@H]2C[C@H]3CC[C@@H](C2)N3c2ccc(C(=O)NCc3ccc(OC(F)(F)F)cc3)cn2)c1C = 2000 to 10000 nM

Response field IC50 (Heat shock protein HSP 90-alpha (Homo sapiens, UniProt P07900)) for item COc1cccc(C(=O)N[C@H]2C[C@H]3CC[C@@H](C2)N3c2ccc(C(=O)NC3CCCCC3)cn2)c1C : 500 to 999 nM

----------
Hi, quick share: literature pIC50 data for Heat shock protein HSP 90-alpha (Homo sapiens, UniProt P07900), several sources combined.
pIC50: −log10 of the molar value.

Observe how each entry below is paired with its result.
In [3]: df
Out[3]:
                                   compound  assay_result
0  COc1ccc([C@H](NC(=O)c2ccc(N3C4CCC3CC(NC(=O)c3cccc(OC)c3C)C4)nc2)C(=O)O)cc1 (some centres unmarked)  5.70 to 6.00
1  CCC(CC)Nc1cc(C(=O)N[C@H]2C[C@H]3CC[C@@H](C2)N3c2ccc(C(=O)C3CC3)cn2)c(F)cc1C(N)=O        > 6.30
2  CCCCNc1cc(C(=O)N[C@H]2C[C@H]3CC[C@@H](C2)N3c2ccc(C(=O)C3CC3)cn2)ccc1C(N)=O        > 6.30
3  COc1cccc(C(=O)N[C@H]2C[C@H]3CC[C@@H](C2)N3c2ccc(C(=O)NCCCN3CCCC3=O)cn2)c1C  6.00 to 6.30
4  COc1cccc(C(=O)N[C@H]2C[C@H]3CC[C@@H](C2)N3c2ccc(C(=O)NCc3ccccc3C)cn2)c1C        > 6.30

The reported Heat shock protein HSP 90-alpha (Homo sapiens, UniProt P07900) pIC50 of CCNC(=O)c1noc(-c2cc(C(C)C)c(O)cc2O)c1-c1ccc(CN(C)CCCCCC(=O)NO)cc1 is ≥ 7.00

Measured pIC50 (Heat shock protein HSP 90-alpha (Homo sapiens, UniProt P07900)), entry NC(=O)c1nc(Sc2cc3c(cc2I)OCO3)n(CCCN2CCOCC2)c1N : 6.05

Noted pIC50 for CCc1ccccc1-c1cc(-c2nnnn2CCCOC)c(O)cc1O , tested on Heat shock protein HSP 90-alpha (Homo sapiens, UniProt P07900): < 4.30
